Catalogue of TGI values
tested on: SR leukemia; assay: NCI tumour cell line growth inhibition, 48 h

compound	reported
O=S1CSSC1	47.2 µM
COc1cc2[nH]c(-c3ccccc3)cc(=O)c2c(OC)c1OC	> 100 µM
CCn1c(-c2nonc2N)nc2ccncc21	> 25 µM

Request: Provide one value: measured TGI of COc1ccc(C2=C(N3CCc4ccccc43)C(=O)NC2=O)cc1
Response: > 25 µM

Request: In one line, give reported TGI of the entry CN(C)c1cccc2c1C(=O)C=CC21c2ccc(N(C)C)c3c(N(C)C)ccc(c23)C(c2ccccc2)C1c1ccccc1 (stereo unspecified) .
Response: 55.1 µM

Request: Annotate the compound CC1c2ccccc2N=C2SC(=S)N3CCN=C3N21 (stereo unspecified) with its measured TGI.
Response: > 100 µM

Request: Answer with the recorded TGI for the compound listed here: CC(C)[Si](OC/C(=C/COC(C)(C)C)[C@H]1CC=C(C(=O)c2ccccc2N2CN(C)C(=O)N(C)C2)C1)(C(C)C)C(C)C
Response: 5.95 µM

Request: Provide measured TGI value, entry: O=C(Cl)C1=C(c2ccccc2)C1c1ccccc1 (stereo unspecified)
Response: > 100 µM

Request: Name the recorded TGI of the compound listed here: O=C1C(C(O)(C(F)(F)F)C(F)(F)F)CCC1C(O)(C(F)(F)F)C(F)(F)F (stereo unspecified)
Response: 43.8 µM

Request: Tell me measured TGI for C[C@H]1[C@H](C)CC[C@]2(C(=O)OC3OC(CO)C(O)C(O)C3O)CC[C@]3(C)C(=CC[C@@H]4[C@@]5(C)C[C@H]6OC(=O)c7cc(O)c(O)c(O)c7-c7c(cc(O)c(O)c7O)C(=O)O[C@@H]6C(CO)(CO)[C@@H]5CC[C@]43C)[C@H]12 (stereo partly specified) please.
Response: > 96.3 µM

Request: For the compound Cc1ccc2oc(=O)c(-c3ccccc3)nc2c1 , give its measured TGI value.
Response: > 100 µM
